# System Name: T1, Human PDGF-BB (human, UniProt P01127 82-190)
# T1 construct: Dimer of two B chains; also called hPDGF-BB; huPDGF-BB
# T1 sequence (P01127 82-190 limits assumed): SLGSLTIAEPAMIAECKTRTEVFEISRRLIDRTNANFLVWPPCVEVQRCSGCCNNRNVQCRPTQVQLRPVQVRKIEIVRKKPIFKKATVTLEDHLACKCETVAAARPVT
# Method: Biacore SPR, antibody captured by anti-human Fc, PDGF-BB as analyte
Measured Metric: kon (M⁻¹ s⁻¹)
// note: answer is a bare numeric in M⁻¹ s⁻¹

>  <Binder>
CL-33812-IgG (antibody, V domains shown) VH: EVTLRESGPALVKPTQTLTLTCTFSGFSLSTYGMGVGWIRQPPGKALEWLANIWWDDDKYYNPSLKNRLTISKDTSKNQVVLTMTNMDPVDTATYYCARIESNPWKYSFDYWGQGTMVTVSS VL: EIVLTQSPGTLSLSPGERATLSCERSSGDIWQSYVSWYQQKPGQAPRLVIYSDDQRASGIPDRFSGSGSGTDFTLTISRLEPEDFAVYYCQSYGINIDVVFGGGTKVEIK

>  <kon [M⁻¹ s⁻¹]>
6.3e+07

$$$$

API: the following record is the query input.
q: Which measured kon value corresponds to CL-33805-IgG (antibody, V domains shown) VH: EVTLRESGPALVKPTQTLTLTCTFSGFSLSTYGMGVGWIRQPPGKALEWLANIWWDDDKYYNPSLKNRLTISKDTSKNQVVLTMTNMDPVDTATYYCARIESHWWSYAFDYWGQGTMVTVSS VL: EIVLTQSPGTLSLSPGERATLSCERSSGSNYDTYVSWYQQKPGQAPRLLIYADDLRASGIPDRFSGSGSGTDFTLTISRLEPEDFAVYYCQSYGIETDIVFGGGTKVEIK ?
a: 6.8e+07
